target_under_test: SARS-CoV-2 spike protein S on live virus, Wuhan (strain SARS-CoV-2/Canada/VIDO-01/2020) (SARS-CoV-2 (Wuhan), UniProt P0DTC2 14-1273)
assay_details: cell-based or functional assay
experimental_readout: LVNA IC50 (nM)
Numbers only, in nM.

Please review the following examples before continuing.
binder	recorded_number
NRCoV2-15 VHH-Fc (Fc fusion, bivalent VHH-Fc) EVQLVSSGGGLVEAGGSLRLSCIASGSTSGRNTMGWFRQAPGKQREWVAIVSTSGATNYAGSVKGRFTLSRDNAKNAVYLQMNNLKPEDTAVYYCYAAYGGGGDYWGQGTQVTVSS	0.73
NRCoV2-SR02 VHH-Fc (Fc fusion, bivalent VHH-Fc) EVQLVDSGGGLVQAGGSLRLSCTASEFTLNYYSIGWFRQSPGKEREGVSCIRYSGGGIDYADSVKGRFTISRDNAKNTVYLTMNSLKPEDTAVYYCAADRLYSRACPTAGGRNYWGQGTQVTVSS	14.1
NRCoV2-11 VHH-Fc (Fc fusion, bivalent VHH-Fc) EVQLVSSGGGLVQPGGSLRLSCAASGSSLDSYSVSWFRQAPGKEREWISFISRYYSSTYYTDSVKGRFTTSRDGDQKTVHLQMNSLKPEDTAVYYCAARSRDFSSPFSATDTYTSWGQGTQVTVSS	9.9

Consider the following items and state reported LVNA IC50 for each.
1. NRCoV2-05 VHH-Fc (Fc fusion, bivalent VHH-Fc) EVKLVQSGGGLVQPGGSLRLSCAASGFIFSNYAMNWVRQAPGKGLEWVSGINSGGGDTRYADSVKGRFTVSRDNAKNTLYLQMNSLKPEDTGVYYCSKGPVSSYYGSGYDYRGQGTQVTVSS
2. NRCoV2-20 VHH-Fc (Fc fusion, bivalent VHH-Fc) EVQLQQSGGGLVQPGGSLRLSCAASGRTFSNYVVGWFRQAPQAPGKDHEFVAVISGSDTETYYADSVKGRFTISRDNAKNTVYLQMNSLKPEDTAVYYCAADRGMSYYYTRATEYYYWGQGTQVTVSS
3. NRCoV2-04 VHH-Fc (Fc fusion, bivalent VHH-Fc) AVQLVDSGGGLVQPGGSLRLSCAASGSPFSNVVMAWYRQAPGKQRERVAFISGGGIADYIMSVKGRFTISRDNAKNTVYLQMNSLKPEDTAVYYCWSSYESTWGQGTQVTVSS
4. NRCoV2-17 VHH-Fc (Fc fusion, bivalent VHH-Fc) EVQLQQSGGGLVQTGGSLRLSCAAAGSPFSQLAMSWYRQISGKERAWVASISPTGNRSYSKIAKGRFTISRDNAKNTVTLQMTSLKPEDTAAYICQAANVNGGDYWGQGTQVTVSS
5. NRCoV2-02 VHH-Fc (Fc fusion, bivalent VHH-Fc) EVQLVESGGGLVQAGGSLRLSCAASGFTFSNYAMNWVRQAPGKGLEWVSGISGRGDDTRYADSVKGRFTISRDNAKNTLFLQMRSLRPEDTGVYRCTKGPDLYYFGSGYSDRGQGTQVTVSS

## Output
1: 0.0008; 2: 11.2; 3: 1.65; 4: 2.82; 5: 0.12
